Target: T1, N-terminal-SNAP-tagged GAL1R, wild type (human, UniProt P47211 1-349, Lumi4-Tb on the SNAP tag)
T1 construct: also called SNAP-GAL1R; GAL1R WT; source: HEK293, transfected, on cells; not shown: SNAP tag, N-terminal, kept
T1 sequence (looked up): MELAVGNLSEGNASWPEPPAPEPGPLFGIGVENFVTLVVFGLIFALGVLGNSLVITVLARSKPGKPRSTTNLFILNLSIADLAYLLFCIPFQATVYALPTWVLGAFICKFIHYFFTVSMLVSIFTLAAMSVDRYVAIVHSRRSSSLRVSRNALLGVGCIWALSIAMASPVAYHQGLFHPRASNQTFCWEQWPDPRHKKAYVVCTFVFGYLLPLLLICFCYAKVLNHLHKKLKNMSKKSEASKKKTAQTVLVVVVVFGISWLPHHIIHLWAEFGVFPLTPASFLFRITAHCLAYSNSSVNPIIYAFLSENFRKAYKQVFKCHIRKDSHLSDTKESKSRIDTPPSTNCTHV
Experiment: AlphaScreen or HTRF; saturation binding: HEK293 cells transfected with SNAP-tagged receptor (WT or mutant) and labelled with SNAP-Lumi4-Tb, incubated with increasing concentrations of galanin-A2 in the presence or absence of 100 uM unlabeled galanin, 1 h at room temperature; HTRF ratio 665 nm/620 nm
Details: one partner purified
recorded endpoint: Kd (nM)
Answers are plain numbers, in nM.

Reported Kd for GWTLNSAGYLLGPHAVGNHRSFSDKNGLTSC (dye A2 on the additional C-terminal cysteine, numbers count on: the mature protein; additional cysteine at the C-terminal end of the peptide, carries the dye A2; source: synthetic peptide (synthesized by Vazyme, China)) : what is it?
22.2
